Parameter composite z-score: see the listing below.
Tested on: Fibrinogen (Alexa647-labelled)
assayProcedure: fibrinogen binders on compound microarrays, profiling panel, artefact control for SMM control-protein annotation, biochemical, small-molecule microarray, 635/667 nm fluorescence (AID 1131);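 also: z-score merges 667 nm fluorescence with per-spot signal-to-noise over triplicate slides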
testConditions: fibrinogen-A647 binding fluorescence, higher = more signal
Could you respond with only the numeric value?

Some molecules with recorded composite z-score:
CC(C)OC(=O)C=C1C[C@@H](c2ccccn2)O[C@@H](c2ccccn2)O1    0.0108
O=C1C[C@]2(c3ccc([N+](=O)[O-])cc3)C(=O)N(CC(F)(F)F)c3cc(CO)ccc3[C@H]2N1C1CCCCC1    -0.603
CCC(CC)C(O)C1C=CC2C(=O)NC(=O)C2N1Nc1ccc(Cl)cc1Cl (centres undefined)    0.952

Now for the molecule whose composite z-score we want.
For record CN(C)CCCC[C@@H]1NC(=O)[C@H]2C[C@@H](C(=O)NCCCCCCN)[C@@H](c3ccc(O)cc3)N2C1=O the listed composite z-score is 0.977

These data points were gathered from PubChem BioAssay.
